target: CLEC12A/CLL1 (Homo sapiens) (UniProt Q5QGZ9); assay: ELISA on plate coated with 1 ug/mL human CLEC12A; sdAb detected with mouse anti-myc mAb and goat anti-mouse IgG-HRP; Abs 450nm
Please go through the items and note down their pEC50.
Schema: pEC50 number; meaning minus log10 of the concentration expressed in molar units.

### Prompt State, in one line, measured pEC50 of VHH clone 2F3 (VHH) VHH: QVQLQAFGGGLVQPGGSLRLSCVVSGTMFSGKDVNWLRQAPGKHVEVVATVSSDGGTDYADFVKGRFTISRDDAKNTVNLQMNSLEPEDTANYMCHFLWGRHYWGQGTQVTVSS
### Response 8.82

### Prompt In one line, give reported pEC50 of the entry VHH clone 2F5 (VHH) VHH: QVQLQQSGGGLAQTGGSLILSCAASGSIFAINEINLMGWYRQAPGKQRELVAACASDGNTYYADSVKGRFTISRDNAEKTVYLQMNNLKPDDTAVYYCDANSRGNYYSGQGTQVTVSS .
### Response 9.19
